Attribution: patent US20210107874A1

assay: Quantitative determination of solubility of compound 5 (UPLC); assay type: physicochemical; conditions: aqueous acid solution (350 mM citric acid in water), 25 °C, aqueous buffer, thermodynamic from solid, Citric acid 350 mM in water, read-out: Solubility T = 1 Day
Recorded Metric: solubility at 1 day (mg/mL)
One number for each entry, in mg/mL.

Given COc1cc(NCCNC(=O)/C=C/C(C)(F)F)ccn1 [Compound 5] , state its recorded solubility at 1 day.
160
